In this section we review reported pKi values for a set of compounds.
targetUnderTest: GABA-A receptor; alpha-2/beta-3/gamma-2 (Homo sapiens, UniProt P18507+P28472+P47869)
Sequence (P18507 whole entry): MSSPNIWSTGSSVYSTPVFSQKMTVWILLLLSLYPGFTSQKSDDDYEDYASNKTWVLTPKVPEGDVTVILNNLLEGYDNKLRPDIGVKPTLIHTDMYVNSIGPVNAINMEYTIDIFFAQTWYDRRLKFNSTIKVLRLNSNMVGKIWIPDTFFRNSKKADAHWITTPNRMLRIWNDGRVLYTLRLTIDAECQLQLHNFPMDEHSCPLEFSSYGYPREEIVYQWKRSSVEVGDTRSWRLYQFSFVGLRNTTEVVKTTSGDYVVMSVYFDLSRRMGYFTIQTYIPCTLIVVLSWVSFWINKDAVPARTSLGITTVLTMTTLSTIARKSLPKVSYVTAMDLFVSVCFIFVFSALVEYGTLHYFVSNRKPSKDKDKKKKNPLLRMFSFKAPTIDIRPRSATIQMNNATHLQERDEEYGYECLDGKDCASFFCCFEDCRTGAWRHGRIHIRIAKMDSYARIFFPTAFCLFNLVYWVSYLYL
Sequence (P28472 whole entry): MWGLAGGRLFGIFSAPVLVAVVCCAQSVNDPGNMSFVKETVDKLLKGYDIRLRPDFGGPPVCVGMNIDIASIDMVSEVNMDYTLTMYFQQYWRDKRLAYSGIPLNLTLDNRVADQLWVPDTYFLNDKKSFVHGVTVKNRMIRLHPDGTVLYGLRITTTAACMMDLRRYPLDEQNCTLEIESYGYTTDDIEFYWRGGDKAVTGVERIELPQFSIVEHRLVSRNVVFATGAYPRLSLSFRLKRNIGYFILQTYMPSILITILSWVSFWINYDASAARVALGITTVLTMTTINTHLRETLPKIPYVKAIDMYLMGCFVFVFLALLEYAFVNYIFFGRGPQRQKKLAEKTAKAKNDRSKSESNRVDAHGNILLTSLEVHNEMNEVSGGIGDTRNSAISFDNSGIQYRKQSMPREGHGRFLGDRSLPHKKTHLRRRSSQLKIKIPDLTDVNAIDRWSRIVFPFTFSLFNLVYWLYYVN
Sequence (P47869 whole entry): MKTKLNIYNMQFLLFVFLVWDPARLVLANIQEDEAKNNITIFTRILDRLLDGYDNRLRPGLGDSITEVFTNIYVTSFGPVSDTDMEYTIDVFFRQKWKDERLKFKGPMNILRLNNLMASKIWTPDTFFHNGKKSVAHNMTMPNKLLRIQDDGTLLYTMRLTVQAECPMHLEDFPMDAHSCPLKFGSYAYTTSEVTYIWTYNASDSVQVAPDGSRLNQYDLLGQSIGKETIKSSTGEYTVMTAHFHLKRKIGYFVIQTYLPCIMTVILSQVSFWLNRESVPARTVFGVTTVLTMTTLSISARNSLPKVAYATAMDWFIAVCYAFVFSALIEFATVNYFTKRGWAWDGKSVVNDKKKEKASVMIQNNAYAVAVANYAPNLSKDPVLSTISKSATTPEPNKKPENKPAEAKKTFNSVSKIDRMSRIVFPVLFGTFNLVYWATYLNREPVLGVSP
protocolText: Displacement of [3H]flunitrazepam from human recombinant GABAA alpha-2-beta-3-gamma-2 receptor expressed in HEK293 cells
Field pKi (float): negative decimal logarithm of the concentration in molar.

| smilesNotation | targetUnderTest | pKi |
| --- | --- | --- |
| C#Cc1ccc2c(c1)C(c1ccccc1)=NCc1c(C(=O)OCCOCCOC(=O)c3ncn4c3CN=C(c3ccccc3)c3cc(C#C)ccc3-4)ncn1-2 | GABA-A receptor; alpha-2/beta-3/gamma-2 (Homo sapiens, UniProt P18507+P28472+P47869) | 5.30 |
| C#Cc1ccc2c(c1)C(c1ccccc1)=NCc1c(C(=O)OCCCOC(=O)c3ncn4c3CN=C(c3ccccc3)c3cc(C#C)ccc3-4)ncn1-2 | GABA-A receptor; alpha-2/beta-3/gamma-2 (Homo sapiens, UniProt P18507+P28472+P47869) | 8.13 |
| CCc1ccc2c(c1)C(=O)N(C)Cc1c(C(=O)OCCCOC(=O)c3ncn4c3CN(C)C(=O)c3cc(CC)ccc3-4)ncn1-2 | GABA-A receptor; alpha-2/beta-3/gamma-2 (Homo sapiens, UniProt P18507+P28472+P47869) | 5.33 |

In: Recorded pKi for C#Cc1ccc2c(c1)C(=O)N(C)Cc1c(C(=O)OCCCCCOC(=O)c3ncn4c3CN(C)C(=O)c3cc(C#C)ccc3-4)ncn1-2 with GABA-A receptor; alpha-2/beta-3/gamma-2 (Homo sapiens, UniProt P18507+P28472+P47869), please?
Out: 6.18

In: // query: C#Cc1ccc2c(c1)C(=O)N(C)Cc1c(C(=O)OCOCOC(=O)c3ncn4c3CN(C)C(=O)c3cc(C#C)ccc3-4)ncn1-2
Out: 5.57
